Data provenance: PubChem BioAssay AID485294

MEASURED_TARGET: Beta-lactamase (Escherichia coli (strain K12)) (UniProt P00811)
Sequence (P00811 whole entry, looked up): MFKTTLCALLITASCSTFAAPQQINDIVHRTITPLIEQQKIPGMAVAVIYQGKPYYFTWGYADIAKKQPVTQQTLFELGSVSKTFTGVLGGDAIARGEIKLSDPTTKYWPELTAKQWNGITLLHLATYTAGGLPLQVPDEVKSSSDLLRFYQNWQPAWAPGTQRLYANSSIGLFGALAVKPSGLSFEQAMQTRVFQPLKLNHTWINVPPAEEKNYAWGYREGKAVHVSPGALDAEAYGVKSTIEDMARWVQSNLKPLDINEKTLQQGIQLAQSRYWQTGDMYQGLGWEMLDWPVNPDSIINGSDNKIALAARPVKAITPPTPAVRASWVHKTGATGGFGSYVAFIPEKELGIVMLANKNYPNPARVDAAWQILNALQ
ASSAY_COMMENT: qHTS Inhibitors of AmpC Beta-Lactamase (assay with detergent); further: nearly all actives have a fitted effect of over 25% in size; further: potency means the concentration at half of the fitted maximal effect
CONDITION_DESCRIPTION: AmpC hydrolysis of nitrocefin, absorbance 480 nm, 0.01% Triton; series mostly up to 114 µM
Among all 370,000 compounds or so, about 150 (0.041%) were called active. Not shown: some 14% with an inconclusive outcome. Shown is part of a subset that was picked to be rich in actives.
MEASUREMENT_KIND: Potency

Record "CSc1ccccc1-c1nnc(NC(=O)c2ccc3c(c2)OCCO3)o1" . Reported Potency: inactive

Record "O=C(Cn1cc(SCc2ccccc2)c2ccccc21)N1CCCCC1" . Reported Potency: inactive

Record "COc1ccc(Cl)cc1-n1c(CCC(=O)O)ccc1-c1ccc(C)cc1" . Reported Potency: inactive

Record "COc1ccc(-c2cc(C(F)(F)F)nc(SCC(=O)N(C)Cc3ccccc3)n2)cc1OC" . Reported Potency: inactive

Record Fc1ccc(C(Nc2ccc(Cl)c(C(F)(F)F)c2)c2nnc(-c3ccccc3)o2)cc1 (stereo unspecified) . Reported Potency: inactive

New cases:
Record "Cc1cc(C)c(NC(=O)c2cc3sc(Cl)cc3n2C)c(C)c1" . Reported Potency: 56.2 µM (active)

Record Cc1ccc(C)c(NC(=O)C2CCCN(S(=O)(=O)c3cn(C)cn3)C2)c1 (stereo unspecified) . Reported Potency: inactive

Record CCOC(=O)c1ccc(N2C(=O)c3[nH]nc(-c4ccccc4)c3C2c2ccc(C(C)C)cc2)cc1 (stereo unspecified) . Reported Potency: inactive

----------
MEASURED_TARGET: Beta-lactamase (Escherichia coli (strain K12))
ASSAY_COMMENT: qHTS Inhibitors of AmpC Beta-Lactamase (assay with detergent); further: nearly all actives have a fitted effect of over 25% in size
CONDITION_DESCRIPTION: AmpC hydrolysis of nitrocefin, absorbance 480 nm, 0.01% Triton; series mostly up to 114 µM
Hit rate of the full screen: of about 370,000 compounds, about 150 (0.041%) were called active. Another 14% or so got no clear call; they are omitted. Calls come from the whole dose curve; as a rule, active = well fitted inhibition curve with a large enough effect; inconclusive = small, poorly fitted or top-dose-only effect; inactive = flat fitted curve, though single readings scatter. For the sample, actives were picked, then their nearest neighbours and some compounds at random.
One label from this list, please: class 1 (active), class 0 (inactive)

*Q* For this compound, state the assay outcome: CCOc1ccc(C(=O)/C=C/c2cn(CC(O)CN3CCCCCC3)c3ccccc23)cc1 (stereo unspecified)
*A* class 0

*Q* For this compound, state the assay outcome: "CC(C)c1cc(CN2CCOCC2)cc(C(C)C)c1O"
*A* class 0

*Q* For this compound, state the assay outcome: CSc1nc(=O)c2c(n1C)NC(=O)CC2c1ccccc1OC(C)C (stereo unspecified)
*A* class 0

*Q* For this compound, state the assay outcome: "Cc1ccc(Cl)cc1N1CCN(C(=O)c2cccn3c(=O)c4cc(Cl)ccc4nc23)CC1"
*A* class 0

*Q* For this compound, state the assay outcome: "COc1ccc(Cl)cc1S(=O)(=O)N1CCC(c2ccncc2)CC1"
*A* class 0

*Q* For this compound, state the assay outcome: "CCOc1cc(C(=O)NCCc2csc3nc(-c4ccc(C)cc4)nn23)cc(OCC)c1OCC"
*A* class 0

*Q* For this compound, state the assay outcome: "CCOc1ccc(/C=C(\C#N)c2nc3ccccc3c(=O)[nH]2)cc1OC"
*A* class 0

*Q* For this compound, state the assay outcome: "Cn1cc(C(=O)NCc2ccccc2F)cn1"
*A* class 0

*Q* For this compound, state the assay outcome: "COC(=O)c1cc(NC(=O)c2cnc(SC)nc2-c2ccccc2)cc(C(=O)OC)c1"
*A* class 0

*Q* For this compound, state the assay outcome: O=C1OC(NC(=O)c2ccccc2)C(N2CCOCC2)=C1Cl (stereo unspecified)
*A* class 0

*Q* For this compound, state the assay outcome: "Clc1ccc(CSc2nncn3c2cc2occc23)cc1"
*A* class 0

*Q* For this compound, state the assay outcome: "Nc1ccc(Nc2cc(O)c3ncccc3c2)cc1"
*A* class 0

*Q* For this compound, state the assay outcome: "Cc1csc2nc(COC(=O)c3ccccc3NC(=O)c3ccccc3Cl)cc(=O)n12"
*A* class 0

*Q* For this compound, state the assay outcome: "COc1ccc2c(c1)c(=O)c(C(=O)c1ccccc1)cn2CC(=O)Nc1ccc2c(c1)OCCO2"
*A* class 0

*Q* For this compound, state the assay outcome: "CCc1cccc(C)c1Nc1c(-c2ccc(N(C)C)cc2)nc2ncccn12"
*A* class 0

*Q* For this compound, state the assay outcome: "Cc1ccc(C)c(N2CCN(CCCNC(=O)Nc3ccc(Cl)cc3)CC2)c1"
*A* class 0

*Q* For this compound, state the assay outcome: "COc1ccc(CCNc2ncnc3onc(-c4ccc(Cl)cc4)c23)c(OC)c1"
*A* class 0

*Q* For this compound, state the assay outcome: "CCOc1cccc(NC(=O)CSc2ncc(-c3ccc(Cl)cc3)[nH]2)c1"
*A* class 0

*Q* For this compound, state the assay outcome: "CC1CCN(S(=O)(=O)c2ccc3c(c2)N(CC(=O)NCCc2ccccc2)C(=O)CO3)CC1"
*A* class 0

*Q* For this compound, state the assay outcome: "CCOC(=O)c1sc(NC(=O)/C=C/c2ccc(C(C)C)cc2)c(C(=O)OCC)c1C"
*A* class 0

*Q* For this compound, state the assay outcome: "Cc1c(-c2nc(-c3ccc4c(c3)OCO4)no2)nnn1-c1ccc(Br)cc1F"
*A* class 0

*Q* For this compound, state the assay outcome: "CC(C)(C)c1ccc(S(=O)(=O)N2CCN(C(=O)c3cc(-c4ccc(Br)cc4)n[nH]3)CC2)cc1"
*A* class 0

*Q* For this compound, state the assay outcome: "COCCn1c(CCC(=O)Nc2cc(C)ccc2C)nc2cccnc21"
*A* class 0

*Q* For this compound, state the assay outcome: CCOc1ccc(-c2n[nH]c3c2C(c2ccccc2OC)N(c2ccc(Br)cc2)C3=O)cc1 (stereo unspecified)
*A* class 0

*Q* For this compound, state the assay outcome: "O=C(CCS(=O)(=O)c1ccccc1)N(Cc1cccnc1)c1nc2c(F)cccc2s1"
*A* class 0

*Q* For this compound, state the assay outcome: "CCOc1ccc(CNC(=O)CCc2c(C)nn(-c3ccc(N4CCCCC4)nn3)c2C)cc1"
*A* class 0

*Q* For this compound, state the assay outcome: "Cc1ccc2nc(COc3cccc(NC(=O)Nc4ccc(C)c(Cl)c4)c3)cc(=O)n2c1"
*A* class 0

*Q* For this compound, state the assay outcome: "CCOC(=O)c1c(C)oc2nc(C)nc(N3CCN(c4ccc(OC)cc4)CC3)c12"
*A* class 0

*Q* For this compound, state the assay outcome: CCc1ccc(N2C(=O)CN(S(=O)(=O)CC)CC2(C)C(=O)NC2CCCCC2)cc1 (stereo unspecified)
*A* class 0

*Q* For this compound, state the assay outcome: "O=c1cc2nc(-c3ccccc3)nc(SCCOc3ccc(Cl)cc3)n2[nH]1"
*A* class 0

*Q* For this compound, state the assay outcome: "CC1=C(c2ccc(C)cc2)S(=O)(=O)NC1=NCCCN1CCN(c2cc(C)ccc2C)CC1"
*A* class 0

*Q* For this compound, state the assay outcome: "COc1ccc(-c2cccc(NS(=O)(=O)c3cc(C)c(OC)c(C)c3C)c2)nn1"
*A* class 0

*Q* For this compound, state the assay outcome: "CCOC(=O)c1c(CNCc2ccccc2F)c2sc(C)cc2n1C"
*A* class 0

*Q* For this compound, state the assay outcome: "COc1ccc2c(c1)c(=O)c(S(=O)(=O)c1ccc(F)cc1)cn2CC(=O)Nc1ccc(C)cc1C"
*A* class 0

*Q* For this compound, state the assay outcome: "CCOc1ccc(-c2cc3nc(C4CCN(C(=O)OC(C)(C)C)CC4)c(C(=O)Nc4ccc(C(=O)OC)cc4)cn3n2)cc1"
*A* class 0

*Q* For this compound, state the assay outcome: "CCc1cc2c(cc3c(=O)n(CC(=O)NCCc4ccc(OC)c(OC)c4)ncn32)s1"
*A* class 0

*Q* For this compound, state the assay outcome: COc1ccc(N2CCN(C(=O)C3CCCN(C(=O)c4cc5sccc5n4C)C3)CC2)cc1 (stereo unspecified)
*A* class 0

*Q* For this compound, state the assay outcome: CC1CCCN(Cc2c(O)ccc3c(=O)c(Oc4ccc(C(C)(C)C)cc4)c(C(F)(F)F)oc23)C1 (stereo unspecified)
*A* class 0

*Q* For this compound, state the assay outcome: "CC(C)(C)c1cc(CN2CCN(CCC#N)CC2)cc(C(C)(C)C)c1O"
*A* class 1

*Q* For this compound, state the assay outcome: "O=C(CSc1nccn1-c1ccc(F)cc1)Nc1cccc2ccccc12"
*A* class 0

*Q* For this compound, state the assay outcome: "O=C(Nc1ccc(O)c(-c2nc3ccccc3o2)c1)c1ccc(-c2cccc(Cl)c2)o1"
*A* class 0
